target: T1, NeutrAvidin (UniProt P02701 25-152, chemically deglycosylated and chemically modified to a more neutral isoelectric point (pI=6.3)); experiment: HABA competition, uncyclized peptides (the filing cites 'FIG. 3B'; FIG. 1B holds these curves)
T1 construct: Bought from Pierce; also called NA; deglycosylated avidin
T1 sequence (P02701 25-152 limits assumed): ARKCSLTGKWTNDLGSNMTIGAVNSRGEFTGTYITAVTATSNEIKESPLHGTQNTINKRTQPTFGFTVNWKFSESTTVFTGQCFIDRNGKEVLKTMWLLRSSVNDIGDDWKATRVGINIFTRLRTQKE
Where no end group is shown, it is not given here.
Each item that follows carries a reported Kd.

>  <binder>
CDRASPYCG-NH2 (cysteine pairing not given here, Same peptide as m1, used as the linear form; also called linear DRASPY peptide; acyclic counterpart) [uncyclized CDRASPYCG (SEQ ID NO: 7)]

>  <Kd>
< 500 µM

$$$$

In the following, a different binder is considered.
The recorded Kd for CDRATPYCG-NH2 (cysteine pairing not given here, Same peptide as m2, used as the linear form; also called linear DRATPY peptide; acyclic counterpart) [uncyclized CDRATPYCG (SEQ ID NO: 9)] is < 500 µM
